ED2: recorded values
Test system: Rattus norvegicus
Assay Method Text: Natriuretic potency was evaluated as oral dose required to produce an excretion of 2 mequiv of Na+/Kg of rat body weight, ED2 value based on N=4 rats/dose
Assay type: functional
Quick reminder: number only, in mg/kg, skip the unit.

Previously resolved entries follow.
{"Compound": "CCCCNc1cc(C(=O)O)cc(S(N)(=O)=O)c1Oc1ccccc1 [BUMETANIDE]", "ED2, mg/kg": 8.5}
{"Compound": "NS(=O)(=O)c1cc(C(=O)O)cc(N2CCCC2)c1Oc1ccccc1 [PIRETANIDE]", "ED2, mg/kg": 0.89}
{"Compound": "NS(=O)(=O)c1cc(C(=O)O)c(NCc2ccco2)cc1Cl [FUROSEMIDE]", "ED2, mg/kg": 9.5}

[in] For the compound CCOC(=O)C1Cc2cc(C(=O)c3ccc(O)c(CN)c3)c(Cl)c(Cl)c2O1 (centres undefined) , what ED2 is on record?
[out] 0.12
